- Measured On: T1, PUF4 RNA-binding domain (Saccharomyces cerevisiae, UniProt P25339 537-888)
- T1 sequence: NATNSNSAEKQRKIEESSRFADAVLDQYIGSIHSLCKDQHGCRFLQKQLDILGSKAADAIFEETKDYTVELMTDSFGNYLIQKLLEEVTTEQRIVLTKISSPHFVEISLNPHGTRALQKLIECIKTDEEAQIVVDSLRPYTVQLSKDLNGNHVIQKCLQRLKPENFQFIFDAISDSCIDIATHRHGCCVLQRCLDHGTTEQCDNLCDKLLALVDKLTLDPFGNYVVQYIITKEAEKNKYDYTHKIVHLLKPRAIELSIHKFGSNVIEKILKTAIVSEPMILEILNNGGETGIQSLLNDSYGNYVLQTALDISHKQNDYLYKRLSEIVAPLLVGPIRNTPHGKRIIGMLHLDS
- Protocol Description: Mg; RNA-MaP; 20 mM Na-HEPES pH 7.4, 30 mM KOAc, 0.75 mM MgCl2, 0.1% Tween-20, 5% glycerol, 0.1 mg/mL BSA, 2 mM DTT; 25 C; 0.0125-409.6 nM protein
- Condition Notes: tags: N-His6-TEV cleaved; C-SNAP kept, Cy3B-labelled; label: tethered on chip by stalled RNA polymerase
Attribute Measured: Kd
Lab note: write values as number then unit, every time.

# count of solved cases: 5
{"Binder": "Ia_S2_P4E.1_K4.1_C4.1_H4.1_A4.1_[A6G]_F4.1_T4.1 (ssRNA) RNA: UUUGAUUAAUAUGAUAUCGUUCUUUCUUGUAUGUUAUUCUUUCUCGAUAUCAUAUUAAUCUUU", "Kd": "2.55 nM"}
{"Binder": "Id_ii_S2_P3E.2_K3.1_C3.2_[C-2T]_H3.1_A3.1_F3.1_T3.2_[T9C]_[A10T] (ssRNA) RNA: UUUGAUUAAUAUGAUAUCGUUCUUUCUUUUGUAUAUACUUUCUUUCUCGAUAUCAUAUUAAUCUUU", "Kd": "4.94 nM"}
{"Binder": "ACAAACGUUAUAUAUUAUCACAAAC (ssRNA) [Id_ii_S3_P4E.3_K4.2_C4.2_[C-2G]_H4.2_A4.1_F4.1_T4.2_[G10T]_[T11C]]", "Kd": "42.4 nM"}
{"Binder": "UCUCUUUGUAUCAGUAUCUCUU (ssRNA) [Ib_S1_P5E.1_K5.1_C5.1_H5.1_A5.1_[T6C]_F5.1_[T8G]_T5.1]", "Kd": "27.9 nM"}
{"Binder": "Id_ii_S2_P3E.4_K3.3_C3.2_[C-2G]_H3.3_A3.1_F3.1_T3.2_[T9C]_[A10C] (ssRNA) RNA: UUUGAUUAAUAUGAUAUCGUUCUUUCUGUACACUAUACCUUCUUUCUCGAUAUCAUAUUAAUCUUU", "Kd": "0.875 nM"}

--- query ---
Output Kd of Ic_S4_P5E.1_K5.1_C5.1_H5.1_A5.1_[T5C]_[T6A]_[A7T]_F5.1_[T8A]_[T9C]_[A10G]_T5.1 (ssRNA) RNA: UUUGACAACUGAUCGUUCUUUCUUGUACAUACGUUCUUUCUCGAUCAGUUGUCUUU
14.5 nM
